Attribution: the Human Domainome abundance scans (Beltran et al. 2025)

B1: Storkhead-box protein 2, residues 64 to 141; numbered along this chain, Q9P2F5 (parent)
chain: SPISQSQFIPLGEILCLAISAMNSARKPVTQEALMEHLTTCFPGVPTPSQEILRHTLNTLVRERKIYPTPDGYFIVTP

# Variants of: B1
# assay-protocol: abundance fitness (aPCA) (normalised: wild type 0, dead -1); higher = more abundant; growth selection in yeast, the domain comes from the species named
# condition-parameters: Homo sapiens
Could you label it class 1 if measured abundance fitness is -0.1 or higher, and class 0 otherwise?

mutations: F8E
assigned-category: class 1

mutations: V29R
assigned-category: class 0

mutations: S6F
assigned-category: class 1

mutations: I3N
assigned-category: class 0

mutations: T69W
assigned-category: class 0

mutations: A33R
assigned-category: class 1

Exercise: Is it the case that `P46R` has abundance fitness reaching or exceeding -0.1?
Solution: class 0

Exercise: Another variant to look at: `P70K`
Solution: class 1
